- procedure summary: Cytotoxicity against human 1321N1 cells assessed as reduction in cell viability at 50 uM after 24 hrs by MTT assay relative to control
- Format: toxicity, cell-based
- condition info: 1321n1, 24 h
Reported Activity values are given for each entry in this list.
// return numeric value only (unit: %, not printed)

Consider the following illustrative entries.
structure	Activity, %
COc1cccc(NC(=S)NC(=O)c2ccc3c(c2)OCO3)c1	4.15
COc1ccccc1NC(=S)NC(=O)c1ccc2c(c1)OCO2	5.41
O=C(NC(=S)Nc1ccc(Br)cc1)c1ccc2c(c1)OCO2	3.72
Cc1cc(Br)ccc1NC(=S)NC(=O)c1ccc2c(c1)OCO2	7.09

Data request: Entry NS(=O)(=O)c1cccc(NC(=S)NC(=O)c2ccc3c(c2)OCO3)c1 needs its Activity filled in; supply it.
Data returned: 6.41

Data request: Entry O=C(NC(=S)Nc1cccc2cccnc12)c1ccc2c(c1)OCO2 needs its Activity filled in; supply it.
Data returned: 3.04

Data request: Entry Cc1ccc(C(=O)Nc2ccc(S(=O)(=O)O)c3cc(S(=O)(=O)O)cc(S(=O)(=O)O)c23)cc1NC(=O)c1cccc(NC(=O)Nc2cccc(C(=O)Nc3cc(C(=O)Nc4ccc(S(=O)(=O)O)c5cc(S(=O)(=O)O)cc(S(=O)(=O)O)c45)ccc3C)c2)c1 needs its Activity filled in; supply it.
Data returned: 11.56

Data request: Entry CC(C)c1ccc(NC(=S)NC(=O)c2ccc3c(c2)OCO3)c(Br)c1 needs its Activity filled in; supply it.
Data returned: 3.83

Data request: Entry O=C(NC(=S)Nc1c(Br)ccc(C(F)(F)F)c1Br)c1ccc2c(c1)OCO2 needs its Activity filled in; supply it.
Data returned: 7.19

* * *

- Tested on: HeLa
- procedure summary: Cytotoxicity against human HeLa cells assessed as reduction in cell viability at 50 uM after 24 hrs by MTT assay relative to control
- Type: toxicity, cell-based
Reported Activity values are given for each entry in this list.
// return numeric value only (unit: %, not printed)

structure	Activity (%)
O=C(NC(=S)Nc1ccc(Br)cc1)c1ccc2c(c1)OCO2	7.64
CC(C)c1ccc(NC(=S)NC(=O)c2ccc3c(c2)OCO3)c(Br)c1	4.53
O=C(NC(=S)Nc1c(Br)ccc(C(F)(F)F)c1Br)c1ccc2c(c1)OCO2	5.35
O=C(NC(=S)Nc1cccc2cccnc12)c1ccc2c(c1)OCO2	5.45
Cc1ccc(C(=O)Nc2ccc(S(=O)(=O)O)c3cc(S(=O)(=O)O)cc(S(=O)(=O)O)c23)cc1NC(=O)c1cccc(NC(=O)Nc2cccc(C(=O)Nc3cc(C(=O)Nc4ccc(S(=O)(=O)O)c5cc(S(=O)(=O)O)cc(S(=O)(=O)O)c45)ccc3C)c2)c1	11.46
Cc1cc(Br)ccc1NC(=S)NC(=O)c1ccc2c(c1)OCO2	1.64

Data request: Quote Activity with test system HeLa for O=C(NC(=S)Nc1cccnc1Cl)c1ccc2c(c1)OCO2
Data returned: 1.94

Data request: Quote Activity with test system HeLa for COc1cccc(NC(=S)NC(=O)c2ccc3c(c2)OCO3)c1
Data returned: 4.18

Data request: Quote Activity with test system HeLa for NS(=O)(=O)c1cccc(NC(=S)NC(=O)c2ccc3c(c2)OCO3)c1
Data returned: 2.52

* * *

Reported Activity values are given for each entry in this list.
- procedure summary: Cytotoxicity against human 1321N1 cells assessed as reduction in cell viability at 50 uM after 24 hrs by MTT assay relative to control
- Assay type: toxicity, cell-based
- condition info: 1321n1, 24 h

Consider the following illustrative entries.
> print(dat)
                                  structure  observation.type  reported.value
1   COc1ccc(NC(=S)NC(=O)c2ccc3c(c2)OCO3)cc1          Activity           3.32%
2  NS(=O)(=O)c1ccc(CCNC(=S)NC(=O)c2ccc3c(c2)OCO3)cc1          Activity           5.81%
3  O=C(NC(=S)Nc1cc(Br)cc(C(F)(F)F)c1)c1ccc2c(c1)OCO2          Activity           3.34%
4    CC(C)c1cc(Br)c(NC(=O)Nc2cccnc2)c(Br)c1          Activity           16.7%
5     O=C(NC(=S)Nc1cccnc1Cl)c1ccc2c(c1)OCO2          Activity           2.82%

Data request: Entry Cc1nc(/N=N/c2ccc(S(=O)(=O)O)cc2S(=O)(=O)O)c(COP(=O)(O)O)c(C=O)c1O needs its Activity filled in; supply it.
Data returned: 12.41%
